From: patent US20250382344A1

molecular target: human GLP-1 receptor (human, UniProt P43220 24-463); experiment: cell-based or functional assay
*1 amine or outer side, *2 acyl side, *3 side chain or, on linkers, in order; H or OH if unused. Where no end group is shown, it is not given here. Side-chain parts run from the residue outwards. [ ]: non-standard residue; d: D form. The star is where a group is joined. C20 diacid = O=C(O)CCCCCCCCCCCCCCCCCCC(=O)*; C18 diacid = O=C(O)CCCCCCCCCCCCCCCCC(=O)*; γGlu = O=C(O)[C@H](CCC(=O)[*:2])N[*:1]; εLys = N[C@@H](CCCCN[*:1])C(=O)[*:2]; dOR = not defined here; Aib = CC(C)(N)C(=O)O

>  <BINDER>
YXEGAFTSDYSIXLEKQAQXAFVRHLINKXTRQRY (Aib at 2, 13, 20, 30; Lys29 epsilon-amino acylated with C18DA-gGlu-gGlu-gGlu-gGlu-gGlu-gGlu-eLys; C-terminal amide) [Compound 85]

>  <RESULT UNIT>
nM

>  <EC50, CreLuc reporter, 0.5% hP>
10.4

$$$$
>  <BINDER>
Y[Aib]EGTFTSDYSI[Aib]LEEQAQ[Aib]AFVRHLINK([εLys-γGlu-γGlu-γGlu-γGlu-γGlu-C18 diacid])[Aib]TRQRY-NH2 [Compound 48]

>  <RESULT UNIT>
nM

>  <EC50, CreLuc reporter, 0.5% hP>
0.5

$$$$
>  <BINDER>
YXEGTFTSDYSIXLDKIAQXAFVRHLINKXTRQRY (Aib at 2, 13, 20, 30; Lys29 epsilon-amino acylated with C18DA-gGlu-gGlu-gGlu-gGlu-gGlu-gGlu-eLys; C-terminal amide) [Compound 33]

>  <RESULT UNIT>
nM

>  <EC50, CreLuc reporter, 0.5% hP>
0.1

$$$$
>  <BINDER>
Y[Aib]EGTFTSDYSI[Aib]LDKQAQ[Aib]AFVRHLINK([εLys-γGlu-γGlu-γGlu-γGlu-γGlu-γGlu-γGlu-C20 diacid])[Aib]TRQ[dOR]Y-NH2 (reading uncertain) [Compound 16]

>  <RESULT UNIT>
nM

>  <EC50, CreLuc reporter, 0.5% hP>
0.7

$$$$
>  <BINDER>
YXEGEFTSDYSIXLEKQAQXAFVRHLINKXTRQRY (Aib at 2, 13, 20, 30; Lys29 epsilon-amino acylated with C18DA-gGlu-gGlu-gGlu-gGlu-gGlu-gGlu-eLys; C-terminal amide) [Compound 54]

>  <RESULT UNIT>
nM

>  <EC50, CreLuc reporter, 0.5% hP>
3.4

$$$$
>  <BINDER>
YXEGTFTSDYSIXLDKQAQXAFIRHLINKXTRQRY (Aib at 2, 13, 20, 30; Lys29 epsilon-amino acylated with C20DA-gGlu-gGlu-gGlu-gGlu-gGlu-gGlu-eLys; C-terminal amide) [Compound 81]

>  <RESULT UNIT>
nM

>  <EC50, CreLuc reporter, 0.5% hP>
0.6

$$$$
